run_description: Rat PK following intravenous and oral dosing
Format: in vivo, male Sprague-Dawley rats
condition_summary: plasma, Intermediate 3 dosed 1 mg/kg IV in PEG
measure: AUC(0-inf) (ng·h/mL)

> print(dat)
                                   molecule     measure  unit.of.measurement  value.reported
1  OC(CNc1nc(-c2cc(-c3ccon3)n(Cc3ccccc3F)n2)ncc1F)(C(F)(F)F)C(F)(F)F [Intermediate 3]  AUC(0-inf)              ng·h/mL            1100

---

run_description: Dog PK following IV and oral dosing
Type: in vivo, male Beagle dogs
condition_summary: male, Beagle, plasma; dog PO, Intermediate 3 in PEG400 capsules (2 mg/kg)
measure: Cmax

> print(dat)
                                   compound  measure  value.reported
1  OC(CNc1nc(-c2cc(-c3ccon3)n(Cc3ccccc3F)n2)ncc1F)(C(F)(F)F)C(F)(F)F [Intermediate 3]     Cmax       307 ng/mL
